Measured on: CDK2/Cyclin A2 (Homo sapiens, UniProt P24941)
Assay summary: Inhibition of human CDK2/Cyclin A2 using PKTPKKAKKL as substrate by PK/LDH spectrophotometric analysis
Type: protein-complex assay
Property label: pIC50
Field pIC50 (float): negative decimal logarithm of the concentration in molar.

For Nc1nc(Nc2ccc(S(N)(=O)=O)cc2)sc1C(=O)c1cccc(Cl)c1 on CDK2/Cyclin A2 (Homo sapiens, UniProt P24941), measured pIC50 was 4.82

The measured pIC50 that C=CCNc1nc(N)c(C(=O)c2ccc3ccccc3c2)s1 showed for CDK2/Cyclin A2 (Homo sapiens, UniProt P24941) is 5.30

Form: item Nc1nc(NC2CCCCC2)sc1C(=O)c1ccccc1 ; test system CDK2/Cyclin A2 (Homo sapiens, UniProt P24941); pIC50: 5.89

---

Assay summary: Cytotoxicity against human RPMI18226 cells after 72 hrs by resazurin/resorufin-based fluorescence assay
Assay type: functional, cell-based
Experimental parameters: RPMI18226, 72 h
Parameter IC50: see the listing below.

>>> print(df.to_string())
                  compound_structure_string  assay_result
0  Nc1nc(Nc2ccc(S(N)(=O)=O)cc2)sc1C(=O)c1ccc(S(N)(=O)=O)cc1       > 10 µM
1  Nc1nc(Nc2ccc(S(N)(=O)=O)cc2)sc1C(=O)c1ccccc1[N+](=O)[O-]       > 10 µM
2  COc1cccc2c1C(=O)c1c(O)c3c(c(O)c1C2=O)C[C@@](O)(C(=O)CO)C[C@@H]3O[C@H]1C[C@H](N)[C@H](O)[C@H](C)O1       0.27 µM
3  Nc1nc(Nc2ccc(S(N)(=O)=O)cc2)sc1C(=O)c1cccc(F)c1        6.8 µM

Nc1cccc(C(=O)c2sc(Nc3ccc(S(N)(=O)=O)cc3)nc2N)c1 yielded IC50 of > 10 µM

Query Nc1nc(Nc2ccc(S(N)(=O)=O)cc2)sc1C(=O)c1ccc2ccccc2c1 yields IC50 of > 10 µM

---

Tested on: SK-ES1
Assay summary: Cytotoxicity against human SK-ES-1 cells after 72 hrs by resazurin/resorufin-based fluorescence assay
Format: functional, cell-based
Experimental parameters: SK-ES1, 72 h
Recorded pIC50 values for a group of compounds are listed next.
Note: pIC50 values are expressed as the negative base-10 logarithm of concentration in M.

>>> print(df.to_string())
                                   compound  property_label  assay_result
0  Nc1nc(Nc2ccc(S(N)(=O)=O)cc2)sc1C(=O)c1cccc(F)c1           pIC50          5.96
1  COc1cccc2c1C(=O)c1c(O)c3c(c(O)c1C2=O)C[C@@](O)(C(=O)CO)C[C@@H]3O[C@H]1C[C@H](N)[C@H](O)[C@H](C)O1 [DOXORUBICIN]           pIC50          7.38

compound Nc1nc(Nc2ccc(S(N)(=O)=O)cc2)sc1C(=O)c1ccccc1[N+](=O)[O-] , pIC50 observed: 6.25

# compound Nc1cccc(C(=O)c2sc(Nc3ccc(S(N)(=O)=O)cc3)nc2N)c1 ; its pIC50 = 5.01

Sure, the documented pIC50 for Nc1nc(Nc2ccc(S(N)(=O)=O)cc2)sc1C(=O)c1ccc2ccccc2c1 is 5.32

---

Measured on: CDK2/Cyclin A2 (Homo sapiens, UniProt P24941)
Assay summary: Inhibition of human CDK2/Cyclin A2 using PKTPKKAKKL as substrate by PK/LDH spectrophotometric analysis
Assay type: protein-complex assay
pIC50: −log10 of the molar value.
Classify by measured pIC50: Met if it is equal to or exceeds 5, Not met if it is smaller.

Examples from the recorded data:
In [3]: df
Out[3]:
                 compound_structure_string                               measured_on  class_name
0        C=CCNc1nc(N)c(C(=O)c2ccc(C)cc2)s1  CDK2/Cyclin A2 (Homo sapiens, UniProt P24941)     Not met
1        C=CCNc1nc(N)c(C(=O)c2ccc(F)cc2)s1  CDK2/Cyclin A2 (Homo sapiens, UniProt P24941)     Not met
2       C=CCNc1nc(N)c(C(=O)c2ccc(Cl)cc2)s1  CDK2/Cyclin A2 (Homo sapiens, UniProt P24941)     Not met
3  N#Cc1ccc(Nc2nc(N)c(C(=O)c3cccnc3)s2)cc1  CDK2/Cyclin A2 (Homo sapiens, UniProt P24941)         Met

Prompt: pIC50 >= 5 for COc1ccc(C(=O)c2sc(Nc3ccc(S(N)(=O)=O)cc3)nc2N)cc1 ?
Response: Not met

Prompt: Hi, just wondering whether CC(C)(C)OC(=O)N1CCC(Nc2nc(N)c(C(=O)c3cccnc3)s2)CC1 shows pIC50 of 5 or higher.
Response: Met

Prompt: Answer whether pIC50 of C=CCNc1nc(N)c(C(=O)c2ccc(OC)cc2)s1 is greater than or equal to 5.
Response: Not met

Prompt: Decide: pIC50 of C=CCNc1nc(N)c(C(=O)c2ccccc2)s1 >= 5?
Response: Not met

---

Measured on: Cyclin-dependent kinase 7/ cyclin H (Homo sapiens, UniProt P50613)
Sequence (P51946 whole entry): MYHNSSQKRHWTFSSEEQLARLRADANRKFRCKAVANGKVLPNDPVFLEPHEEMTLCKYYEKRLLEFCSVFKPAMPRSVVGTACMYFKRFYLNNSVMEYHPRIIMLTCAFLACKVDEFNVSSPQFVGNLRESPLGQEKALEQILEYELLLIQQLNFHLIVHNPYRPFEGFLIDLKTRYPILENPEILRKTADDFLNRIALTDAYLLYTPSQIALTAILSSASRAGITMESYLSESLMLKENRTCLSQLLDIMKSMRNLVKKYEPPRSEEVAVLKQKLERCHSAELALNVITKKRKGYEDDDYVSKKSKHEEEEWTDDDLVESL
Sequence (P50613 whole entry): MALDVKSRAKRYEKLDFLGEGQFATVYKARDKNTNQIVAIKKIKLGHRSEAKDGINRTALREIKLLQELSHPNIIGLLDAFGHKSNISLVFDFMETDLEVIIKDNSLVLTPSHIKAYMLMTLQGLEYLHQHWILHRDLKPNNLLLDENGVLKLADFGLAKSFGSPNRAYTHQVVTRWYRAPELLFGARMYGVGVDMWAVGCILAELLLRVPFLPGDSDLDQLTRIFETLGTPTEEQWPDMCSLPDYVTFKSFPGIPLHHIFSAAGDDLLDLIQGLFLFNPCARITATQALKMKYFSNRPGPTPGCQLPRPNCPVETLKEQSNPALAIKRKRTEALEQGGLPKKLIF
Assay summary: Inhibition of CDK7/Cyclin H (unknown origin)-mediated phosphorylation of peptide substrate incubated for 15 mins prior to substrate addition measured after 90 mins by P33-radiolabeled assay
Property label: IC50

Entry Nc1nc(Nc2ccc(S(N)(=O)=O)cc2)sc1C(=O)c1ccccc1[N+](=O)[O-] — recorded IC50 = > 1000 nM

---

Measured on: CDK2/Cyclin A2 (Homo sapiens)
Assay summary: Inhibition of human CDK2/Cyclin A2 using PKTPKKAKKL as substrate by PK/LDH spectrophotometric analysis
Type: protein-complex assay
Flag rule - IC50 less than 6 µM flags yes; the remaining entries get no.

Here are 5 compounds together with their reported answers.
                  compound_structure_string  class_name
0            C=CCNc1nc(N)c(C(=O)c2ccncc2)s1          no
1            C=CCNc1nc(N)c(C(=O)c2ccccn2)s1          no
2    Nc1nc(Nc2ccccc2)sc1C(=O)c1ccc2ccccc2c1          no
3  CN(C)/C=C/C(=O)c1sc(Nc2ccc(S(N)(=O)=O)cc2)nc1N          no
4       Nc1nc(Nc2cccc(F)c2)sc1C(=O)c1ccccc1         yes

Prompt: For this compound, is IC50 lower than 6 µM? Nc1nc(Nc2ccc(C(=O)O)cc2)sc1C(=O)c1cccnc1
Response: yes

Prompt: Is 6 µM strictly greater than the compound's reported IC50? compound: CC(C)(C)Nc1nc(N)c(C(=O)c2ccccc2)s1
Response: no

Prompt: State whether 6 µM exceeds IC50 recorded for Nc1ccc(C(=O)c2sc(Nc3ccc(S(N)(=O)=O)cc3)nc2N)cc1 .
Response: no

Prompt: Input CCOC(=O)c1sc(Nc2ccccc2)nc1N ; condition: IC50 strictly below 6 µM. Does it hold?
Response: no

Prompt: Strictly below 6 µM in IC50? CNc1nc(N)c(C(=O)c2ccccc2)s1
Response: no

Prompt: Could you please tell me whether IC50 recorded for COc1cccc(C(=O)c2sc(Nc3ccccc3)nc2N)c1 is less than 6 µM?
Response: yes

Prompt: IC50 under 6 µM? Item: Nc1nc(Nc2ccccc2)sc1C(=O)c1cccc(F)c1
Response: yes

---

# key: entry, value: IC50
System: A673
Assay summary: Cytotoxicity against human A673 cells after 72 hrs by resazurin/resorufin-based fluorescence assay
Type: functional, cell-based
Experimental parameters: A673, 72 h

Recorded IC50, per entry:
In [3]: df
Out[3]:
                  compound_structure_string  measured_on  assay_result
0  Nc1cccc(C(=O)c2sc(Nc3ccc(S(N)(=O)=O)cc3)nc2N)c1         A673        8.8 µM
1  Nc1nc(Nc2ccc(S(N)(=O)=O)cc2)sc1C(=O)c1ccccc1[N+](=O)[O-]         A673       0.27 µM
2  Nc1nc(Nc2ccc(S(N)(=O)=O)cc2)sc1C(=O)c1ccc2ccccc2c1         A673        3.7 µM
3  Nc1nc(Nc2ccc(S(N)(=O)=O)cc2)sc1C(=O)c1cccc(F)c1         A673       0.45 µM

Turning now to a further record.
Item: Nc1nc(Nc2ccc(S(N)(=O)=O)cc2)sc1C(=O)c1ccc(S(N)(=O)=O)cc1 | IC50: > 10 µM

---

Measured on: CDK3/Cyclin E (Homo sapiens, UniProt Q00526)
Sequence (P24864 whole entry): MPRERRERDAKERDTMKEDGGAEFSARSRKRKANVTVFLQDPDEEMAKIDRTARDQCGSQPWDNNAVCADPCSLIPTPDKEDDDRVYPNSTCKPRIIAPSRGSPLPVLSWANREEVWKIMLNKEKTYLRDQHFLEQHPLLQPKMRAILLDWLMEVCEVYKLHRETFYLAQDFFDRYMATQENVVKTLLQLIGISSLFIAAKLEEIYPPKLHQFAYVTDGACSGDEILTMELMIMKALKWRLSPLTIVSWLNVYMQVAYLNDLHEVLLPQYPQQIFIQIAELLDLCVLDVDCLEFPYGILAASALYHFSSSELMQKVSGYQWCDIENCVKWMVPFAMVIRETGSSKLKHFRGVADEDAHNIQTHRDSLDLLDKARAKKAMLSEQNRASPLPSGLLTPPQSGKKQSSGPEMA
Sequence (Q00526 whole entry): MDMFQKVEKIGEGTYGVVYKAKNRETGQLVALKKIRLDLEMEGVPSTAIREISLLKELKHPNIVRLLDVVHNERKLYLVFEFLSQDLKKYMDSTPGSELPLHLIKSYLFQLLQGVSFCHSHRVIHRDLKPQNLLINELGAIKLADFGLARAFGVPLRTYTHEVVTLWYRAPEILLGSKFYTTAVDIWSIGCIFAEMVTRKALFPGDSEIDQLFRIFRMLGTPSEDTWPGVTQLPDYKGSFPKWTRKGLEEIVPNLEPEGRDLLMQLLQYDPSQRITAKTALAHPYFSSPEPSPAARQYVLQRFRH
Assay summary: Inhibition of CDK3/Cyclin E (unknown origin)-mediated phosphorylation of peptide substrate incubated for 15 mins prior to substrate addition measured after 90 mins by P33-radiolabeled assay
Property label: IC50

IC50 of Nc1nc(Nc2ccc(S(N)(=O)=O)cc2)sc1C(=O)c1ccccc1[N+](=O)[O-] , assay on CDK3/Cyclin E (Homo sapiens, UniProt Q00526), is 0.038 µM
